Assignment: determine reported IC50 for the given compounds.
TEST_TARGET: human TLR9 (Homo sapiens, UniProt Q9NR96)
Sequence (Q9NR96 26-1032): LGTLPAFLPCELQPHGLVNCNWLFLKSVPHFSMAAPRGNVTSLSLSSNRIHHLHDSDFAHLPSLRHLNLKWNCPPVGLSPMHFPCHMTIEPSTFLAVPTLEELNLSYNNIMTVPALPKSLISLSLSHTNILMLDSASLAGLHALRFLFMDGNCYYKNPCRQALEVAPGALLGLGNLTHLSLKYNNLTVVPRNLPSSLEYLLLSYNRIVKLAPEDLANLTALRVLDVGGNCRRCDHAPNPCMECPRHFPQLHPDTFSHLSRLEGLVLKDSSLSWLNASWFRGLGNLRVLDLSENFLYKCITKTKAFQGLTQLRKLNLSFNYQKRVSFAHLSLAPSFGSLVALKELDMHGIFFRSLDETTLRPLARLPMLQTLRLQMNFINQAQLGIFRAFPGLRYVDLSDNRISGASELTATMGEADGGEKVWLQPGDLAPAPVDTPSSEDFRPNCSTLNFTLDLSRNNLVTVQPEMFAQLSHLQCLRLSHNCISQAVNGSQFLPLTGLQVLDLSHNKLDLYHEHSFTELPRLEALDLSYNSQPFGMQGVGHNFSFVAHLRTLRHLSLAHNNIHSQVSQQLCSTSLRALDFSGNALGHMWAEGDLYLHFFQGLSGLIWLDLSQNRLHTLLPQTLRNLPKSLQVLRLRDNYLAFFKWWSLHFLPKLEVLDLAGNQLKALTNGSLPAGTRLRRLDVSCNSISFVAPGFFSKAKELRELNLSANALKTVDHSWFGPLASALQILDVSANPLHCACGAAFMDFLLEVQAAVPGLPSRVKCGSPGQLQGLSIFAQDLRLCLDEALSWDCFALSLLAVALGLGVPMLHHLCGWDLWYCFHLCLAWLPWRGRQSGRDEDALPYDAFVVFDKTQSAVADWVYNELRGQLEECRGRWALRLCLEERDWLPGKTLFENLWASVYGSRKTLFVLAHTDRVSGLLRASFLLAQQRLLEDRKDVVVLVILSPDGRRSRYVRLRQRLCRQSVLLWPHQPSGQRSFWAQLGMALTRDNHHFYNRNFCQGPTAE
ASSAY_SUMMARY: TLR9 inhibition reporter assay (HEK-Blue cells, SEAP reporter, ODN2006 stimulation)
MEASUREMENT_PARAMETERS: HEK-Blue cells overexpressing human TLR9, SEAP reporter, ODN2006 5 nM

Past entries and their recorded results:
>  <COMPOUND>
Cc1cn2cc(-c3[nH]c4ccc(C5CCN(Cc6cnn(C)c6)CC5)cc4c3C(C)C)cc(C(F)(F)F)c2n1

>  <OBSERVATION_TYPE>
IC50

>  <RESULT>
1000 to 50000 nM

$$$$
>  <COMPOUND>
CC(C)c1c(-c2cnc3ncnn3c2)[nH]c2ccc(C3CCN(C(=O)CN(C)C)CC3)cc12

>  <OBSERVATION_TYPE>
IC50

>  <RESULT>
1000 to 50000 nM

$$$$
>  <COMPOUND>
CC(C)c1c(-c2ccnc3[nH]ncc23)[nH]c2cc(C(F)(F)F)c(C3CCN(CC4CCN(C(C)C)C4)CC3)cc12 (stereo not drawn)

>  <OBSERVATION_TYPE>
IC50

>  <RESULT>
100 to 1000 nM

$$$$

Dear colleague, could you send me IC50 for each of the items below? Thanks.
1. Cc1cc(-c2[nH]c3ccc(C4CCN(C5COC5)CC4)cc3c2C(C)C)cc2cncn12
2. CC(C)c1c(-c2ccc3cnnn3c2)[nH]c2ccc(C3CCN(CC(=O)N(C)C)CC3)cc12
3. Cc1c(-c2ccnc3c2ccn3C)[nH]c2ccc(C3CCN(C4CCN(CC(C)C)CC4)CC3)cc12
4. COc1cc(-c2[nH]c3ccc(C4CCN(C(=O)CN(C)C)CC4)cc3c2C(C)C)nn2ncnc12

Result:
["1000 to 50000 nM", "100 to 1000 nM", "< 100 nM", "1000 to 50000 nM"]

# return IC50 for each item in the list
1. CNC(=O)CN1CCC(c2ccc3[nH]c(-c4ccn5nnc(C)c5c4)c(C(C)C)c3c2)CC1
2. Cc1cc(-c2[nH]c3ccc(C4CCN(CCS(C)(=O)=O)CC4)cc3c2C(C)C)cn2nnnc12

Result:
1: 1000 to 50000 nM; 2: 1000 to 50000 nM
